Reported shrunken log2 fold change values are given for each entry in this list.
test system: Escherichia coli TOP10; test: shrunken log2 fold change of peptide-encoding DNA abundance (4.5 h post-induction vs induction); higher = less antimicrobial activity (less host growth inhibition); conditions: time post-induction: 4.5 h; library: site-saturation at positions 5, 18, 19, 20
API note: the answer field is a bare number with no unit suffix.

Sample records with shrunken log2 fold change:
RRIRVRPPRLPRPRPRPQLGPRP = -0.0234
RRIRGRPPRLPRPRPRPGQKPRP = 0.494
RRIRDRPPRLPRPRPRPMELPRP = 0.0119
RRIRYRPPRLPRPRPRPCPCPRP = 0.0185

// next item, shrunken log2 fold change requested
So what's the measured shrunken log2 fold change for this one? "RRIRPRPPRLPRPRPRPFVRPRP"
-0.117

* * *

test system: Escherichia coli TOP10; experiment: shrunken log2 fold change of peptide-encoding DNA abundance (4.5 h post-induction vs induction); higher = less antimicrobial activity (less host growth inhibition); details: time post-induction: 4.5 h; library: site-saturation at positions 5, 18, 19, 20
Each record's class is read off its shrunken log2 fold change using these ranges: LOW (below -0.08), MID (-0.08 to below 0.2), HIGH (0.2 or more)

Solved cases below.
RRIRMRPPRLPRPRPRPRLCPRP = HIGH
RRIRVRPPRLPRPRPRPAVYPRP = LOW
RRIRGRPPRLPRPRPRPGIKPRP = HIGH
RRIRHRPPRLPRPRPRPARRPRP = MID
RRIRQRPPRLPRPRPRPGDTPRP = LOW
RRIRDRPPRLPRPRPRPPFAPRP = HIGH
RRIRNRPPRLPRPRPRPKFYPRP = LOW
RRIRRRPPRLPRPRPRPLPCPRP = MID
RRIRDRPPRLPRPRPRPRKFPRP = LOW
RRIRRRPPRLPRPRPRPPIDPRP = MID

GET /class?item= "RRIRERPPRLPRPRPRPEATPRP"
MID

Item: "RRIRNRPPRLPRPRPRPAKKPRP"
MID

Now consider "RRIRARPPRLPRPRPRPQEDPRP" and answer again.
MID

* * *

system: Escherichia coli TOP10; assay: shrunken log2 fold change of peptide-encoding DNA abundance (4.5 h post-induction vs induction); higher = less antimicrobial activity (less host growth inhibition); conditions: time post-induction: 4.5 h; library: site-saturation at positions 5, 18, 19, 20;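 further: peptides expressed intracellularly from a pBAD plasmid library in pooled LB shake-flask culture, induced with 0.3% L-arabinose, DNA abundance read by NGS, three biological replicates, DESeq2 with apeglm shrinkage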
Measured parameter: shrunken log2 fold change
Provide a numeric answer; units are not to be included.

RRIRHRPPRLPRPRPRPQTTPRP = -0.0121

Entry "RRIRVRPPRLPRPRPRPACHPRP" : reported shrunken log2 fold change = ?
0.0396

Try "RRIRTRPPRLPRPRPRPGFMPRP" next.
-0.0526

Try the sequence "RRIRLRPPRLPRPRPRPTTEPRP"
-0.00894

Try this sequence next: "RRIRPRPPRLPRPRPRPGSKPRP"
-0.0791

// same read-out, input: "RRIRDRPPRLPRPRPRPKKQPRP"
0.187

Cool, now "RRIRRRPPRLPRPRPRPGQMPRP"
0.0545

Then what about the sequence "RRIRMRPPRLPRPRPRPISIPRP" ?
-0.313

Okay, and "RRIRGRPPRLPRPRPRPVFFPRP" ?
0.888

What do we get for "RRIRERPPRLPRPRPRPILCPRP" ?
-0.0244

What do you get for "RRIRFRPPRLPRPRPRPDGEPRP" ?
0.0232

Then this sequence: "RRIRMRPPRLPRPRPRPWHLPRP"
-0.00137

Then what about the sequence "RRIRSRPPRLPRPRPRPLIDPRP" ?
-0.197

Also check "RRIRARPPRLPRPRPRPIIMPRP"
-0.258

"RRIRWRPPRLPRPRPRPHNKPRP" , same question.
-0.39
